System: lactate dehydrogenase (LDH)
assay_text: ELISA analysis of phage on LDH (irrelevant, non-specific target)
Assay type: binding
measurement_context: peptide binding to LDH polypeptide (non-specific binding); phage ELISA units read at 405 nm
test_readout: LDH (OD)

INSERT INTO assay_data (substance, recorded_result) VALUES
  ('YTPASILTGFQRGYEGAGNG (DGI-2-20R-4-G7; listed as Escherichia coli)', 1.2),
  ('WRARSSGYLFALTPNFGVPHIPSSALRRMH.GLMARDLRPV [DGI-2-40F-3-C10]', 0.9),
  ('ERVSKCVGRGSGRSVGQFGG (DGI-2-20F-PP-F1; listed as Escherichia coli)', 0.9),
  ('SWRLWVSGELQGDRRKGLRG (DGI-2-20R-3-B7; listed as Escherichia coli)', 1.0),
  ('LSHPMSPLRAASQMALTQGV (DGI-2-20R-4-H7; listed as Escherichia coli)', 1.2),
  ('SVSGGGVFGTGGRVRHQVSG (DGI-2-20F-PP-C5; listed as Escherichia coli)', 0.9),
  ('DGKHLTKWSGRGWWSAWVGG (DGI-2-20R-3-B12; listed as Escherichia coli)', 1.0),
  ('RRILPWSFPGCGRMC (DGI-2-20R-3-A10; listed as Escherichia coli) [DGJ-2-20R-3-A10]', 1.1);
